System: CDKL2
EXPERIMENTAL CONDITIONS: concentration: 1 μM, replicates: in singlicate; n = 1;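 also: KINOMEscan kinase panel screen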
ASSAY READOUT: %Inh (%)

> print(dat)
                                 mol.smiles  recorded.number
1      Cc1ccc(-c2nc(Nc3ccncc3)c3ccccc3n2)s1                0
2  CNCc1ccc2nc(NC(=O)c3ccc(C(C)(C)C)cc3)cn2c1                0
3      COc1cc2ncnc(Nc3cccc(Br)c3)c2cc1OC.Cl               24
4  Cc1c(Cn2c3ccccc3n3c(=O)cc(N4CCOCC4)nc23)cccc1C(F)(F)F               16
5  COc1ccc(CSc2nnc(-c3ccc4nccn4c3)o2)cc1C(F)(F)F                7

###

Catalogue of %Inh readings, one per entry.
Tested on: MKK7
EXPERIMENTAL CONDITIONS: concentration: 1 μM, replicates: in singlicate; n = 1
ASSAY READOUT: %Inh (%)

> print(dat)
                                  mol.smiles  recorded.number
 1  COc1ccc(CSc2nnc(-c3ccc4ncsc4c3)o2)cc1C(F)(F)F                0
 2  CS(=O)(=O)CCNCc1nc(-c2ccc3ncnc(Nc4ccc(OCc5ccccc5)c(Cl)c4)c3c2)cs1.Cl                0
 3  Cc1ccc(NC(=O)Nc2ccccc2F)cc1-c1ccc(C(=O)Nc2ccncc2)cc1                0
 4  FC(F)(F)c1ccccc1-c1cc(-c2c[nH]nc2-c2ccccn2)ccn1                0
 5               c1ccc(-c2ccnc3[nH]ccc23)cc1                0
 6             CCn1c(-c2c(N)noc2C)nc2cnccc21                0
 7  CNc1nc(-c2ccc3c(N)n[nH]c3c2)cc(N2C[C@@H](C(=O)NC3CCCCC3)OC[C@H]2C)n1                0
 8   COc1ccc(CSc2nnc(-c3ccc4c(c3)CCO4)o2)cc1                0
 9  Cc1ccccc1-c1cc(-c2c[nH]nc2-c2ccccn2)ccn1                0
10     Fc1ccc(-c2nn3cccc(F)c3c2-c2ccncc2)cc1               16
11   Cc1cccc2c(-c3ccncn3)c(-c3ccc(F)cc3)nn12                0
12  CNCc1ccc2nc(NC(=O)c3ccc(C(C)(C)C)cc3)cn2c1                8
13  Cn1cncc1-c1cc2c(Nc3ccc(OCc4ccccc4)cc3)ncnc2cn1               11
14     O=c1cc(N2CCOCC2)nc2n(Cc3ccccc3F)ccn12                0
15  CNc1nc(-c2ccc3c(N)n[nH]c3c2)cc(N2C[C@@H](C(=O)Nc3ccccc3)CC[C@H]2C)n1                0
16  COc1nccc(-c2c(-c3ccc(F)cc3)ncn2CCCN2CCOCC2)n1               23
17  NS(=O)(=O)c1cccc(N/C=C2\C(=O)Nc3ccc(S(=O)(=O)Cc4c(Cl)cccc4Cl)cc32)c1                0
18  Cc1ccc(NC(=O)c2ccc(Cl)cc2)cc1-c1ccc(C(=O)Nc2ccncc2)cc1                0

###

Tested on: ACVR1B
EXPERIMENTAL CONDITIONS: concentration: 1 μM, replicates: in singlicate; n = 1
ASSAY READOUT: %Inh (%)

> print(dat)
                                   compound  assay.readout  units.symbol  recorded.number
1   Cc1cccc2c(-c3ccncn3)c(-c3ccc(F)cc3)nn12           %Inh             %                2
2  COc1ccc(Nc2nccc(N3CCC(NC(=O)C(C)c4ccc(Cl)cc4)C3)n2)cc1 (stereo not drawn)           %Inh             %               19
3  COc1cccc(C2=C(Nc3cc(Cl)c(O)c(Cl)c3)C(=O)NC2=O)c1           %Inh             %                0
4           Fc1ccc(-c2nc[nH]c2-c2ccncc2)cc1           %Inh             %               13
5  COc1cccc(CNC(=O)NC2CCN(c3ccnc(Nc4ccc(F)cc4)n3)C2)c1 (stereo not drawn)           %Inh             %                0
6  CNCc1ccc2nc(NC(=O)c3ccc(C(C)(C)C)cc3)cn2c1           %Inh             %                0
7  COc1cccc(NC(=O)Nc2ccc(C)c(-c3ccc(C(=O)Nc4ccncc4)cc3)c2)c1           %Inh             %                0
8  CNc1nc(-c2ccc3c(N)n[nH]c3c2)cc(N2C[C@@H](C(=O)Nc3ccccc3)CC[C@H]2C)n1           %Inh             %                0
9                         Cn1cnc2c(N)ncnc21           %Inh             %                0

###

Test system: CSF1R
EXPERIMENTAL CONDITIONS: concentration: 1 μM, replicates: in singlicate; n = 1
ASSAY READOUT: %Inh (%)

> print(dat)
                                    compound  recorded.number
 1      COc1cc2ncnc(Nc3cccc(Br)c3)c2cc1OC.Cl                4
 2       CNc1cc(-c2ccc3c(N)n[nH]c3c2)nc(N)n1                3
 3  CS(=O)(=O)CCNCc1nc(-c2ccc3ncnc(Nc4ccc(OCc5ccccc5)c(Cl)c4)c3c2)cs1.Cl                3
 4  COC(=O)c1cccc(NC(=O)NC2CCN(c3ccnc(Nc4ccc(F)cc4)n3)C2)c1 (stereo not drawn)                2
 5     O=c1cc(N2CCOCC2)nc2n(Cc3ccccc3F)ccn12                0
 6  COc1ccc(Nc2nccc(N3CCC(NC(=O)C(C)c4ccc(Cl)cc4)C3)n2)cc1 (stereo not drawn)               27
 7  CS(=O)(=O)CCNCc1nc(-c2ccc3ncnc(Nc4ccc5c(cnn5Cc5ccccc5)c4)c3c2)cs1.Cl.Cl                0
 8       Fc1ccc(-c2nc3n(c2-c2ccncc2)CCS3)cc1                0
 9  CNC(=O)c1ccc(C)c(-n2c(C)cc(OCc3ccc(F)cc3F)c(Br)c2=O)c1                0
10  COC(=O)C(NC(=O)NC1CCN(c2ccnc(Nc3ccc(F)cc3)n2)C1)c1ccccc1 (stereo not drawn)                5
11  CN1c2ccc(-c3ccc(C(N)=O)cc3)cc2-c2[nH]ncc2S1(=O)=O                0
12  Nc1ncnc2occ(-c3ccc4c(c3)CCN4C(=O)Cc3cc(F)ccc3F)c12               17
13  CC(=O)c1cccc(NC(=O)NC2CCN(c3ccnc(Nc4ccc(F)cc4)n3)C2)c1 (stereo not drawn)               18
14  O=C1NC(=O)C(c2ccc(Cl)cc2)=C1Nc1ccc(O)cc1                0
15  Cc1ccc(NC(=O)Nc2ccccc2)cc1-c1ccc(C(=O)Nc2ccncc2)cc1               84
16           Fc1ccc(-c2nc[nH]c2-c2ccncc2)cc1                0
17  Cn1cncc1C(=O)NC1CCN(c2ccnc(Nc3ccc(F)cc3)n2)C1 (stereo not drawn)                6
18  COc1cccc(C2=C(Nc3cc(Cl)c(O)c(Cl)c3)C(=O)NC2=O)c1                0

###

Below, each entry is listed with its recorded %Inh.
Test system: PRP4
EXPERIMENTAL CONDITIONS: concentration: 1 μM, replicates: in singlicate; n = 1
ASSAY READOUT: %Inh (%)

> print(dat)
                                   compound  measured.on  recorded.number
1  COC(=O)C(Cc1ccccc1)NC(=O)NC1CCN(c2ccnc(Nc3ccc(F)cc3)n2)C1 (stereo not drawn) [GSK1379714]         PRP4               33
2  COc1ccc(Nc2nccc(N3CCC(NC(=O)c4cc5ccccc5s4)C3)n2)cc1 (stereo not drawn) [GSK1379738]         PRP4               57
3  COc1ccc2cc(-c3nc(-c4ccccc4C(C)C)[nH]c3-c3ccncc3)ccc2c1 [SB-660566]         PRP4                4
4  COc1nccc(-c2c(-c3ccc(F)cc3)ncn2CCCN2CCOCC2)n1 [SB-282852]         PRP4               24
5  Cc1ccc(NC(=O)Nc2ccccc2)cc1-c1ccc(C(=O)Nc2ccncc2)cc1 [GSK1398471]         PRP4                0
6  Cc1ccccc1Cn1ccn2c(=O)cc(N3CCOCC3)nc12 [GSK2269905]         PRP4               14
7  O=C1NC(=O)C(c2ccc(Cl)cc2)=C1Nc1cccc(Cl)c1 [SB-317651]         PRP4                0
8  CNc1nc(-c2ccc3c(N)n[nH]c3c2)cc(N2C[C@@H](C(=O)Nc3ccccc3)CC[C@H]2C)n1 [GSK2298859]         PRP4               11
9  O=C1NC(=O)C(c2ccc(Cl)cc2)=C1Nc1ccc(O)cc1 [SB-340867]         PRP4                8
